# assay_notes: RP, Waters ACQUITY UPLC BEH C18, 100 × 1 mm, 1.7 µm, 50 °C, 0.3 mL/min, estimated dead time 0.17 min; A: water + 10 mM ammonium bicarbonate; B: 10% water + 90% methanol + 10 mM ammonium bicarbonate; gradient (min/%B) 0/0 15/100 21/100 22/0 30/0
# experimental_context: stereoisomer not certain
I'd appreciate it if you could supply LC retention time values for the items below.
Answers are plain numbers, in min.

Below are worked cases with known answers.
{"compound": "CCOC(=O)C(Cl)Cc1cc(-n2nc(C)n(C(F)F)c2=O)c(F)cc1Cl (stereo not drawn)", "units_label": "min", "LC retention time": 15.8}
{"compound": "NS(=O)(=O)C(F)(F)C(F)(F)C(F)(F)C(F)(F)C(F)(F)C(F)(F)C(F)(F)C(F)(F)F [Perfluorooctanesulfonamide]", "units_label": "min", "LC retention time": 15.7}
{"compound": "CCC(CO)NCCNC(CC)CO (stereo not drawn)", "units_label": "min", "LC retention time": 8.12}
{"compound": "Cc1cc(=O)n(-c2ccccc2)n1C", "units_label": "min", "LC retention time": 8.96}
{"compound": "CCC(C)C1OC2(CCC1C)CC1CC(CC=C(C)C(OC3CC(OC)C(OC4CC(OC)C(O)C(C)O4)C(C)O3)C(C)C=CC=C3COC4C(O)C(C)=CC(C(=O)O1)C34O)O2 (stereo not drawn)", "units_label": "min", "LC retention time": 19.3}

Hello, I would appreciate it if you could give LC retention time for each entry below.
1. CN1CCCC(n2nc(Cc3ccc(Cl)cc3)c3ccccc3c2=O)CC1 (stereo not drawn)
2. CCCC1OC2CC3C4CCC5=CC(=O)C=CC5(C)C4C(O)CC3(C)C2(C(=O)CO)O1 (stereo not drawn) [Budesonide]
3. NCCc1ccc(O)c(O)c1
4. COC(=O)c1ccc(O)cc1
5. OC(Cn1cncn1)(Cn1cncn1)c1ccc(F)cc1F

Solution:
16.3
15.1
6.92
9.08
9.58
